The measured values listed here are drawn from ChEMBL document CHEMBL1151887.

Target: Adenosine receptor A2a (Homo sapiens)
Test: Displacement of [3H]CGS21680 from human recombinant adenosine A2a receptor expressed in HEK293 cells by liquid scintillation counting
measured-quantity: Ki (µM)

Answered cases to consult:
> print(dat)
                                     smiles  recorded.number
1  O[C@@H]1[C@H](O)CO[C@H]1n1cnc2c(NCc3cccc(I)c3)ncnc21            0.997
2  O[C@@H]1[C@H](O)CO[C@H]1n1cnc2c(NCc3cccc(Cl)c3)ncnc21             3.41

1. O[C@@H]1[C@H](O)CO[C@H]1n1cnc2c(NCc3cccc(Br)c3)ncnc21
2. O[C@@H]1[C@H](O)CO[C@H]1n1cnc2c(NCc3cccc(F)c3)ncnc21
3. O[C@@H]1[C@H](O)CO[C@H]1n1cnc2c(NCc3cccc(Cl)c3)nc(Cl)nc21
Highest Ki first, then in falling order down to the smallest. # respond with the labels, arranged in the requested order 2, 3, 1

----------
Target: Adenosine receptor A2a (Homo sapiens, UniProt P29274)
Sequence (P29274 whole entry): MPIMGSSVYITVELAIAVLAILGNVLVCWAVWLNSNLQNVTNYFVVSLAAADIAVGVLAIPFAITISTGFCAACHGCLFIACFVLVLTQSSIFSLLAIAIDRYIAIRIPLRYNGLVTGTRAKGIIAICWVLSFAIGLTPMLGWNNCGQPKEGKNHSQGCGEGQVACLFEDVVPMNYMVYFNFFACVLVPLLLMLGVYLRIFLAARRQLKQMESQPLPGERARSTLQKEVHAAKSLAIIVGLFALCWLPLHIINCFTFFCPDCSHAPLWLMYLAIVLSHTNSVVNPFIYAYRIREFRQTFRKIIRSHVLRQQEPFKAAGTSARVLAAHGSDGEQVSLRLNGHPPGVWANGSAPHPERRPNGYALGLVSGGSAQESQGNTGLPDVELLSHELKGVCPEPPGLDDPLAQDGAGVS
Test: Displacement of [3H]CGS21680 from human recombinant adenosine A2a receptor expressed in HEK293 cells at 10 uM by liquid scintillation counting
Type: cell-based
measured-quantity: inhibition (%)

> print(dat)
                                     smiles  recorded.number
1  CNc1ncnc2c1ncn2[C@@H]1OC[C@@H](O)[C@H]1O               25

I. CNc1nc(Cl)nc2c1ncn2[C@@H]1OC[C@@H](O)[C@H]1O
II. O[C@@H]1[C@H](O)CO[C@H]1n1cnc2c(NCc3cccc(Br)c3)nc(Cl)nc21
III. O[C@@H]1[C@H](O)CO[C@H]1n1cnc2c(NCc3cccc(I)c3)nc(Cl)nc21
Highest inhibition first, then in falling order down to the smallest. # respond with the labels, arranged in the requested order III, II, I
